Data origin: patent US20220127350A1

Measured Kd by item
# tested_target: T1, cynomolgus monkey IL-17A (Macaca fascicularis (cynomolgus monkey))
# T1 construct: also called cyno IL-17A; cyno IL17A
# assay_remarks: SPR (Biacore T200), cynomolgus IL-17A, scFv as analyte
Report as a plain number; the unit nM is understood.

* PRO571 (humanized anti-IL-17A scFv, CDR graft of 27-31-C04) (scFv, VL-linker-VH; also called 27-31-C04-sc01; 27_31_C04_sc01) scFv: DIQMTQSPSSLSASVGDRVTITCQASESIYRYLSWYQQKPGKAPKLLIYLASTLTSGVPSRFSGSGSGTDFTLTISSLQPEDFATYYCQSNFGTASTTYYNTFGGGTKLTVLGGGGGSGGGGSGGGGSGGGGSEVQLVESGGGLVQPGGSLRLSCAASGFSFSGFYYMCWVRQAPGKGLEWIGCIDTGDGTTYYASWAKGRFTISRDNSKNTVYLQMNSLRAEDTAVYYCARDAAYGGYAYPAHGMDLWGQGTLVTVSS | 0.0331
* PRO592 (humanized anti-IL-17A scFv, STR graft of 27-31-C04) (scFv, VL-linker-VH; also called 27-31-C04-sc02; 27_31_C04_sc02) scFv: DIQMTQSPSSLSASVGDRVTITCQASESIYRYLSWYQQKPGKAPKLLIYLASTLTSGVPSRFSGSGSGTDFTLTISSLQPEDFATYYCQSNFGTASTTYYNTFGGGTKLTVLGGGGGSGGGGSGGGGSGGGGSEVQLVESGGGLVQPGGSLTLSCAASGFSFSGFYYMCWVRQAPGKGLEWIGCIDTGDGTTYYASWAKGRFTISRDNSKNTVYLQMNSLRAEDTAVYYCARDAAYGGYAYPAHGMDLWGPGTLVTVSS | 0.16
* A2 (humanized anti-IL-17A scFv, STR graft of 27-07-G02) (scFv, VL-linker-VH; also called 27-07-G02-sc02) scFv: DIQMTQSPSSLSASVGDRVTITCQASQTINYWLAWYQQKPGKPPKLLIYRASTLASGVPSRFSGSGSGTDFTLTISSLQPEDFATYYCQNYYYSTSRSYGFGGGTKLTVLGGGGGSGGGGSGGGGSGGGGSEVQLVESGGGLVKPEGSLRLSCAASGFSFSSDYWMCWVRQAPGKGLEWIACIYAGDVDDTDYASWARGRFTISRDNSKNTVYLQMNSLRAEDTAVYYCARVDGFDITYFDLWGQGTLVTVSS | 5.19

Next item in the queue.
Query string: # Kd lookup, item A1 (humanized anti-IL-17A scFv, CDR graft of 27-07-G02) (scFv, VL-linker-VH; also called 27-07-G02-sc01; 27_07_G02_sc01) scFv: DIQMTQSPSSLSASVGDRVTITCQASQTINYWLAWYQQKPGKAPKLLIYRASTLASGVPSRFSGSGSGTDFTLTISSLQPEDFATYYCQNYYYSTSRSYGFGGGTKLTVLGGGGGSGGGGSGGGGSGGGGSEVQLVESGGGLVQPGGSLRLSCAASGFSFSSDYWMCWVRQAPGKGLEWIGCIYAGDVDDTDYASWARGRFTISRDNSKNTVYLQMNSLRAEDTAVYYCARVDGFDITYFDLWGQGTLVTVSS
Result string: 0.905
